assayTarget: T1, recombinant antigen of the extracellular region of CD47 (Sino Biological, Cat: 12283-H08H) (human, UniProt Q08722 19-139)
T1 construct: extracellular domain; also called recombinant CD47 extracellular region; CD47 recombinant protein
T1 sequence (Q08722 19-139 limits assumed): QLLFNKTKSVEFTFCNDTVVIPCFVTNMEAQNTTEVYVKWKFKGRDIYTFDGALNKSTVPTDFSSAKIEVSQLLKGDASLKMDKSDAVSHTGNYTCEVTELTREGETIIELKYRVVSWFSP
procedureText: Fortebio BLI, recombinant CD47 extracellular region
recordedEndpoint: kon (M⁻¹ s⁻¹)
Write the answer as a number in M⁻¹ s⁻¹, unit excluded.

Entry 140Hm3/hz140L (Table 2) (antibody, V domains shown, also called hz140-Hm/hz140L) VH: QVQLVQSGAEVKKPGASVKVSCKASGYKFTNYVMSWVRQAPGQRLEWMGYINPYNDGIKYNEKFTGRVTITRDTSASTAYMELSSLRSEDTAVYYCAREGDFYANYGRLGFAYWGQGTLVTVSS VL: DIQMTQSPSSLSASVGDRVTITCRASQDITNYLNWYQQKPGKAPKLLIYYTSRLHSGVPSRFSGSGSGTDYTFTISSLQPEDIATYFCQQGDTFPRTFGGGTKVEIK — recorded kon = 201000

Entry 140Hm6/hz140L (Table 2) (antibody, V domains shown, also called hz140-Hm/hz140L) VH: QVQLVQSGAEVKKPGASVKVSCKASGYKFTNYVMHWVRQAPGQRLEWMGYINPYNDGIKYNEKFQGRVTITRDTSASTAYMELSSLRSEDTAVYYCAREGDFYANYGRLGFAYWGQGTLVTVSS VL: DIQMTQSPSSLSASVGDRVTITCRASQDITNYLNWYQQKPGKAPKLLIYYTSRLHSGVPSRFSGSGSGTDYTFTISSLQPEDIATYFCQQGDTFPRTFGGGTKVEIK — recorded kon = 313000

Entry 140Hm4/hz140L (Table 2) (antibody, V domains shown, also called hz140-Hm/hz140L) VH: QVQLVQSGAEVKKPGASVKVSCKASGYKFTNYVMHWVRQAPGQRLEWMGWINPYNDGIKYNEKFTGRVTITRDTSASTAYMELSSLRSEDTAVYYCAREGDFYANYGRLGFAYWGQGTLVTVSS VL: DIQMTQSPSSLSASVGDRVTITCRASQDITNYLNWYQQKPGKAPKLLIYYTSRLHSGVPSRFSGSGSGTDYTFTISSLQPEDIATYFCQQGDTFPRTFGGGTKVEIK — recorded kon = 350000

Entry 140Hm8/hz140L (Table 2) (antibody, V domains shown, also called hz140-Hm/hz140L) VH: QVQLVQSGAEVKKPGASVKVSCKASGYKFTNYVMHWVRQAPGQRLEWMGYINPYNDAIKYNEKFTGRVTITRDTSASTAYMELSSLRSEDTAVYYCAREGDFYANYGRLGFAYWGQGTLVTVSS VL: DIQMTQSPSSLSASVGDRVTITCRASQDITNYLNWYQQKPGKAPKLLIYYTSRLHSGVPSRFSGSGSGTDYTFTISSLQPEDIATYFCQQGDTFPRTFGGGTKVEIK — recorded kon = 243000

Entry 140Hm7/hz140L (Table 2) (antibody, V domains shown, also called hz140-Hm/hz140L) VH: QVQLVQSGAEVKKPGASVKVSCKASGYKFTNYVMHWVRQAPGQRLEWMGYINPYNDGIKYNEKFTGRVTITRDTSASTAYMELSSLRSEDTAVYYCAREGDFYANYGRLGFDYWGQGTLVTVSS VL: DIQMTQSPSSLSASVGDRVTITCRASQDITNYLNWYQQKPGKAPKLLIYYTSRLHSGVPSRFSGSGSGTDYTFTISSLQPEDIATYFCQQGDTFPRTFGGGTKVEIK — recorded kon = 213000

The origin of these recorded values is patent US20230406921A1.
